Provenance of the data: patent US9227956B2

System: PCSK9
METHOD DESCRIPTION: PCSK9 lowering in sandwich culture human hepatocytes (SCHH)
Format: cell-based
STATED CONDITIONS: maximum response versus vehicle; at 6 h at 30 uM
Experimental: Test compound in-vitro pharmacokinetic and pharmacodynamic relationships were measured in sandwich culture primary cryopreserved human hepatocytes. Within these studies SCHH cells (BD Biosciences IVT) were thawed at 37° C. then placed on ice, after which the cells were added to pre-warmed (37° C.) In VitroGRO-HT media and centrifuged at 50×g for 3 min. The cell pellet was re-suspended to 0.8×10^6 cells/mL in InVitroGRO-CP plating medium and cell viability determined by trypan blue exclusion. […]
Class rule met: Sandwich Culture Hepatocyte (SCHH) PCSK9 Lowering at least 20 % at 6 h at 30 uM. Class rule not met: Sandwich Culture Hepatocyte (SCHH) PCSK9 Lowering below 20 % at 6 h at 30 uM.

COMPOUND	CLASS ASSIGNMENT
CCOC(=O)OC(CC)n1nnc(-c2c(-c3ccc(C(=O)N(c4ncccc4C)[C@@H]4CCCNC4)cc3)cnn2C)n1 (single isomer, unassigned) [Example 33]	rule met
CCOC(=O)OC(CC)n1nnc(-c2c(-c3ccc(C(=O)N(c4ncccc4C)[C@@H]4CCCNC4)cc3)cnn2C)n1 (single isomer, unassigned) [Example 32]	rule not met
CCC(OC(=O)C(C)C)n1nnc(-c2c(-c3ccc(C(=O)N(c4ncccc4C)[C@@H]4CCCNC4)cc3)cnn2C)n1 (single isomer, unassigned) [Example 53]	rule not met
Cc1cccnc1N(C(=O)c1ccc(-c2cnn(C)c2-c2nnn(C(C)OC(=O)OC(C)C)n2)cc1)[C@@H]1CCCNC1 (single isomer, unassigned) [Example 39]	rule not met
Cc1cccnc1N(C(=O)c1ccc(-c2cnn(C)c2-c2nnn(C(OC(=O)C(C)C)C(C)C)n2)cc1)[C@@H]1CCCNC1 (single isomer, unassigned) [Example 54]	rule met
CCC(OC(=O)OC(C)C)n1nnc(-c2c(-c3ccc(C(=O)N(c4ncccc4C)[C@@H]4CCCNC4)cc3)cnn2C)n1 (single isomer, unassigned) [Example 40]	rule met
CCOC(=O)OC(C)N(C(=O)c1c(-c2ccc(C(=O)N(c3ncccc3C)[C@@H]3CCCNC3)cc2)cnn1C)S(C)(=O)=O (some centres unmarked)	rule met
CCOC(=O)OC(n1nnc(-c2c(-c3ccc(C(=O)N(c4ncccc4C)[C@@H]4CCCNC4)cc3)cnn2C)n1)C(C)(C)C (single isomer, unassigned) [Example 37]	rule met
Cc1cccnc1N(C(=O)c1ccc(-c2cnn(C)c2-c2nnn(C(OC(=O)OC(C)C)C(C)C)n2)cc1)[C@@H]1CCCNC1 (single isomer, unassigned) [Example 42]	rule not met
Cc1cccnc1N(C(=O)c1ccc(-c2cnn(C)c2-c2nnn(C(C)OC(=O)C(C)C)n2)cc1)[C@@H]1CCCNC1 (single isomer, unassigned) [Example 50]	rule met
Cc1cccnc1N(C(=O)c1ccc(-c2cnn(C)c2-c2nnn(C(C)OC(=O)C(C)C)n2)cc1)[C@@H]1CCCNC1 (single isomer, unassigned) [Example 51]	rule met
